All figures here come from paper PMC12864922.

target: TDP-43 (Homo sapiens, UniProt Q13148 1-414); experiment: RNA Bind-n-Seq with designed 260-mer pool; 25 mM Tris-HCl, 150 mM KCl, 3 mM MgCl2, BSA (printed 500 mg/mL), 20 units/mL SUPERase IN; pH not stated; 500 nM RNA pool, 1 h, 4 C; TDP-43 5, 50, 500 nM; high values mean tight binding; details: protein: recombinant; tags: SBP (GST cleaved off with PreScission; pGEX-GST-SBP)
Sequence (Q13148 whole entry): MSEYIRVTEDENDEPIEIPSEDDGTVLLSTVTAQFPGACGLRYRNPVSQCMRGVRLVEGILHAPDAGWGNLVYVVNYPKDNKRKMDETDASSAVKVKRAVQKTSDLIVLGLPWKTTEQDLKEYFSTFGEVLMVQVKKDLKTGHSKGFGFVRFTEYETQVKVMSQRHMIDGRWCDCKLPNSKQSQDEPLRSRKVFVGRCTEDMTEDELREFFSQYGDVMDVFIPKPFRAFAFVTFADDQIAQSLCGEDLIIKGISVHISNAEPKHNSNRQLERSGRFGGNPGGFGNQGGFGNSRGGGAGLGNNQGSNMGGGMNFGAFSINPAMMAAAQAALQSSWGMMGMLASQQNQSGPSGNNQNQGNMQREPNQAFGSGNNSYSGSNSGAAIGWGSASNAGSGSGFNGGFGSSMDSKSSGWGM
In all, about 9,900 sequences were measured (“r (bound/input frequency ratio)”: median about 0.7, highest 2% from about 6.5 on). The sample as a whole holds a higher share of the highest values than the screen did.
Measured parameter: binding signal

Binder	Measured value
ENSMUSG00000043670.203|Diras1|6:10;40:44;54:63;69:76;109:113;142:154;178:183;186:190;195:199 (ssRNA) RNA: GGGAGUUCUACAGUCCGACGAUCGCUUCGAUAUCCGCAUGCUAGGGCCACACACCCACCCAGAUGAGGGUGACUUAGAAUUCACACAUUAUGUGCCACACACACACGAUGGCACACACACUGUCUUGGGAUGGGGUGUUCUUGCACCACUUACACAUCUUAGUGAGACCACAGUGUAAGUGGCCCACACACACACACGGGGGGGGCACCUAGACAUUGUGCACACACUCAUACGCUCACACAUUUCAGGGGUGGGUGACACAGGCCUGUCUGAUGAGCACCAGGUCUGUUCCAGGCUGUGGCACUCUUGCGGUCGCACUAGUGUGGAAUUCUCGGGUGUCAAGG	1.5 R (bound/input frequency ratio)
